Origin of measurements: patent US10407388B2

molecular target: RORα (Homo sapiens); construct: expressed in transfected cells; host or cells: CV-1 cells (ATCC CCL-70); test: Transcriptional activity of RORα, RORE-tk-Luc reporter in CV-1 cells (Experimental Example 1); type: cell-based; details: JC1 compounds 100 μM, 24 hours; luciferase activity standardized by β-gal; versus control treated only with solvent
Each entry below carries its reported Fold Activation.

>>> print(df.to_string())
                                   molecule  assayvalue
0       CNC(=S)NCc1ccc(F)cc1F [Compound 32]         0.9
1  CNC(=S)NCc1ccc2ccccc2c1 [Compound 43, 1-methyl-3-naphthalene-2-methyl-thiourea]         0.7
2     CNC(=S)NCc1ccc(O)c(O)c1 [Compound 22]         0.6
3     CNC(=S)NCc1ccc(F)c(F)c1 [Compound 31]         0.8
4  CCOc1cc(-c2ccccc2)ccc1CNC(=S)NC [Compound 44]         1.2
5  CNC(=S)NCc1ccc(Br)cc1 [Compound 2, 1-(4-bromo-benzyl)-3-methyl-thiourea]         1.4
6  CNC(=S)NCc1cccc(F)c1 [Compound 29, 1-(3-fluoro-benzyl)-3-methyl-thiourea]         1.1
7  CNC(=S)NCc1ccc(OC)cc1 [Compound 4, 1-(4-methoxy-benzyl)-3-methyl-thiourea]         3.4

Shifting focus to the molecule that follows.
Need Fold Activation, item CNC(=S)NCc1cc(OC)c(OC)c(OC)c1 [Compound 19]
2.2

---

Target: RORα (Homo sapiens)
Construct: expressed in transfected cells; host or cells: CV-1 cells (ATCC CCL-70)
Assay: Transcriptional activity of RORα, RORE-tk-Luc reporter in CV-1 cells (Experimental Example 1)
Type: cell-based
Settings: JC1 compounds 100 μM, 24 hours; luciferase activity standardized by β-gal; versus control treated only with solvent
Experimental: CV-1 cells (CCL-70) were purchased from American Type Culture Collection (ATCC). The CV-1 cells (4×10^4 cells/well) were seeded on a 24-well culture plate and cultured overnight in a Dulbecco's Modified Eagle's Medium (DMEM) containing 10% fetal bovine serum (FBS). The CV-1 cells were maintained at 37° C. in a humidification thermostat containing 5% CO2 and 95% air. […]
Listed molecules paired with reported Fold Activation

Solved cases (3 shown):
>>> print(df.to_string())
                                 smilescode  assayvalue
0                CNC(=S)NCc1ccccc1-c1ccncc1         1.9
1           CNC(=S)NCc1ccc([N+](=O)[O-])cc1         1.6
2  CCOc1cc(-c2ccc(C(F)(F)F)cc2)ccc1CNC(=S)NC         1.0

Now, please, on to the next molecule.
Give the measured Fold Activation of "CNC(=S)NCc1ccc(Oc2ccccc2)cc1" .
4.6

---

Biological target: RORα (Homo sapiens, UniProt P35398)
Construct: expressed in transfected cells; host or cells: CV-1 cells (ATCC CCL-70)
Sequence (P35398 1-523): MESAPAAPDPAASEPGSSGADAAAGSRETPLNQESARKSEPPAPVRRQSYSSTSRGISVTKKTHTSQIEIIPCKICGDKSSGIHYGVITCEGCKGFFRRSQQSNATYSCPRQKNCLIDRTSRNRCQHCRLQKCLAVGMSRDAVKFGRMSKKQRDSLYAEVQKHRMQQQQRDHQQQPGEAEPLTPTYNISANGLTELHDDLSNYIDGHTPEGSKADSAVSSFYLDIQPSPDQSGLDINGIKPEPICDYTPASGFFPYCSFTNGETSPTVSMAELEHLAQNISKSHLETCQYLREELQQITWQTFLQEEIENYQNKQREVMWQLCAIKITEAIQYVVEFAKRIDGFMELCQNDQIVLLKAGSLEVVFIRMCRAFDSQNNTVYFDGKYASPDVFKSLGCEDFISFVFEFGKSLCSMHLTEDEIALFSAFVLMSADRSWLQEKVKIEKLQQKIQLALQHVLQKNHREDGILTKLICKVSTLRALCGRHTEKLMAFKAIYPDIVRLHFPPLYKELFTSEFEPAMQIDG
Test: Transcriptional activity of RORα, RORE-tk-Luc reporter in CV-1 cells (Experimental Example 1)
Assay type: cell-based
Conditions: JC1 compounds 100 μM, 24 hours; luciferase activity standardized by β-gal; versus control treated only with solvent
Fold Activation values for the compounds below.

Here are 3 compounds together with their reported answers.
In [3]: df
Out[3]:
                smilescode  experimentalreadout  assayvalue
0      CNC(=S)NCc1ccccc1Br      Fold Activation         3.4
1     CNC(=S)NCc1cccc(C)c1      Fold Activation         1.1
2  CNC(=S)NCc1ccc(Cl)cc1Cl      Fold Activation         0.6

// next item, Fold Activation requested
Give the measured Fold Activation of "CNC(=S)NCc1ccc(C(F)(F)F)cc1" .
2.3

---

// values below are reported Fold Activation
Target: RORα (Homo sapiens, UniProt P35398)
Construct: expressed in transfected cells; host or cells: CV-1 cells (ATCC CCL-70)
Experiment: Transcriptional activity of RORα, RORE-tk-Luc reporter in CV-1 cells (Experimental Example 1)
Assay type: cell-based
Settings: JC1 compounds 100 μM, 24 hours; luciferase activity standardized by β-gal; versus control treated only with solvent
Description: CV-1 cells (CCL-70) were purchased from American Type Culture Collection (ATCC). The CV-1 cells (4×10^4 cells/well) were seeded on a 24-well culture plate and cultured overnight in a Dulbecco's Modified Eagle's Medium (DMEM) containing 10% fetal bovine serum (FBS). The CV-1 cells were maintained at 37° C. in a humidification thermostat containing 5% CO2 and 95% air. […]
Just the number, please, no unit attached.

Answered cases to consult:
In [3]: df
Out[3]:
                                   compound  experimentalreadout  assayvalue
0  CNC(=S)NCc1cccc(Cl)c1 [Compound 28, 1-(3-chloro-benzyl)-3-methyl-thiourea]      Fold Activation         0.7
1  CNC(=S)NCc1ccccc1Cl [Compound 34, 1-(2-chloro-benzyl)-3-methyl-thiourea]      Fold Activation         0.8
2     CNC(=S)NCc1cccc(OC)c1OC [Compound 15]      Fold Activation         1.5

Requested field: Fold Activation. Item: CNC(=S)N[C@H](C)c1ccc(OC)cc1 [Compound 35]
0.7

Look up Fold Activation for this compound: CCOc1cc(-c2ccc(C(C)(C)C)cc2)ccc1CNC(N)=S [Compound 45]
1.0

Sample CNC(=S)NCc1ccc(OC)c(O)c1 [Compound 25] — what was its Fold Activation?
1.9

Look up Fold Activation for this compound: CNC(=S)NCc1ccc(OC)c(OCc2ccccc2)c1 [Compound 41]
2.5

Requested field: Fold Activation. Item: C=CCOc1ccccc1CNC(=S)NC [Compound 39, 1-(2-allyloxy-benzyl)-3-methyl-thiourea]
1.8

What value of Fold Activation has been recorded for this entry: CCOc1cc(C=Cc2ccccc2)ccc1CNC(=S)NC [Compound 47]
1.2

---

target: RORα (Homo sapiens, UniProt P35398); construct: expressed in transfected cells; host or cells: CV-1 cells (ATCC CCL-70); assay: Transcriptional activity of RORα, RORE-tk-Luc reporter in CV-1 cells (Experimental Example 1); assay type: cell-based; details: JC1 compounds 100 μM, 24 hours; luciferase activity standardized by β-gal; versus control treated only with solvent
experimentalReadout: Fold Activation
Reply with just the number.

Answered examples (7):
In [3]: df
Out[3]:
                                   molecule                           measuredon  experimentalreadout  assayvalue
0  CNC(=S)NCc1ccccc1C [Compound 7, 1-(2-methyl-benzyl)-3-methyl-thiourea]  RORα (Homo sapiens, UniProt P35398)      Fold Activation         0.7
1      CNC(=S)NCc1ccc(OC)cc1OC [Compound 5]  RORα (Homo sapiens, UniProt P35398)      Fold Activation         1.1
2    CNC(=S)NCc1ccc(N(C)C)cc1 [Compound 10]  RORα (Homo sapiens, UniProt P35398)      Fold Activation         1.3
3  CNC(=S)NCc1ccc(-c2ccccc2)cc1 [Compound 24, 1-(4-phenyl-benzyl)-3-methyl-thiourea]  RORα (Homo sapiens, UniProt P35398)      Fold Activation         0.2
4  CNC(=S)NCc1ccc(F)cc1 [Compound 30, 1-(4-fluoro-benzyl)-3-methyl-thiourea]  RORα (Homo sapiens, UniProt P35398)      Fold Activation         2.5
5  CNC(=S)NCc1cccc([N+](=O)[O-])c1 [Compound 17, 1-(3-nitro-benzyl)-3-methyl-thiourea]  RORα (Homo sapiens, UniProt P35398)      Fold Activation         0.9
6  CNC(=S)NCc1ccccc1[N+](=O)[O-] [Compound 18, 1-(2-nitro-benzyl)-3-methyl-thiourea]  RORα (Homo sapiens, UniProt P35398)      Fold Activation         2.1

Let us move to another entry and its Fold Activation.
Please give the measured Fold Activation for this molecule: CNC(=S)NCc1ccc(Cl)cc1 [Compound 3, 1-(4-chloro-benzyl)-3-methyl-thiourea]
2.6
